protocol_summary: Selectivity ratio of cytotoxicity against human WI38 cells to MIC for multidrug-resistant Pseudomonas aeruginosa NCTC 13437
Assay type: toxicity, cell-based
Form field: selectivity ratio (one value per entry).
The answer should be written as a number, with no unit following it.

Sample records with selectivity ratio:
| smiles_data | readout_number |
| --- | --- |
| COc1cc2c(cc1OCCCC(=O)Nc1cc(C(=O)Nc3ccc4sc(C(=O)N5CCCCC5)cc4c3)n(C)c1)N=C[C@@H]1CCCN1C2=O | 10 |
| COc1cc2c(cc1OCCCC(=O)Nc1cc(C(=O)Nc3ccc4oc(C(=O)N5CCOCC5)cc4c3)n(C)c1)N=C[C@@H]1CCCN1C2=O | 10 |
| CCN(CC)C(=O)c1cc(-c2ccc(NC(=O)c3cc(NC(=O)CCCOc4cc5c(cc4OC)C(=O)N4CCC[C@H]4C=N5)cn3C)cc2)cn1C | 10 |
| COc1cc2c(cc1OCCCC(=O)Nc1cc(C(=O)Nc3ccc(-c4cc(C(=O)N5CCOCC5)n(C)c4)cc3)n(C)c1)N=C[C@@H]1CCCN1C2=O | 10 |
| COc1cc2c(cc1OCCCC(=O)Nc1cc(C(=O)Nc3ccc4oc(C(=O)N(C)C)cc4c3)n(C)c1)N=C[C@@H]1CCCN1C2=O | 10 |

Now turn to the next compound.
Query string: Suppose we examine the compound `COc1cc2c(cc1OCCCC(=O)Nc1cc(C(=O)Nc3ccc4oc(C(=O)N5CCSCC5)cc4c3)n(C)c1)N=C[C@@H]1CCCN1C2=O` ; what selectivity ratio value has been reported?
Result string: 10
